# PBM binding z-score annotations
# Test system: PPARg:RXRa 270nM:90nM, anti-RXR (NR concentration 270 nM, RXRa partner concentration 90 nM)
# Method description: PBM binding z-score (relative to random genomic background probes); higher = stronger binding; sequences stand for … in GC…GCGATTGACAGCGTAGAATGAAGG
Please reply with the value in numeric form only.

Before answering, review these 6 worked examples.
AGAACGAGGGCACGATGAGTTGATAGCAGAGTAG 2.02
CCTCGCAGGACAGAAGGTCAGAGCTGTCCGCTTT 0.666
TCTAGCAGGCCAGAGGGTCCCTCAAGAGGTACGG 1.14
CCTATTGGGCCATCAGGTCATTGATATCAACGTT 2.49
ATCGAAAGGTCGTGAGGTGCGTATACAGAAAGGC 3.76
CGACCGAGGGCATGAGTTGATAGCAAATGCCGAT -0.153

Entry TAGCCTAGGTCATTCAGGGGCCAGTAGAGAAAGC : reported PBM binding z-score = ?
2.31

Quick check: PBM binding z-score of GCTGACGGGTCAAAGGTTATAGCATGAATAGAAT ?
8.11

For the sequence CAGCCTAGGTCAGGGCCAGTTTAGGAGGAACGTT , what PBM binding z-score is on record?
0.962

Find the recorded PBM binding z-score belonging to TCTAGTAGTTGAAGGGCAACCGACGAGTCCGTTT and report it.
1.65

Bench note: what PBM binding z-score did TCAGCTAGGTCAGTTGGTCAGCTAACGAGCTGCC show?
1.71

Would you kindly share the measured PBM binding z-score for AGAATGAGGTTATTAAGATCAGGTAATTGCGGTC ?
1.96

###

# Tested on: RARa homodimer (NR concentration 270 nM)
# Method description: PBM binding z-score (relative to random genomic background probes); higher = stronger binding; sequences stand for … in GC…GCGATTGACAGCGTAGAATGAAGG
Measured PBM binding z-score, listed per entry for reference.
Quick one: just the number, no unit, thanks!

Please review the entries below; each comes with its answer.
CGAACTAGGTCATCCAGGACAGAGAATACATTGA 0.545
CAAACTAGGTCAAAGGTCAAAGTCGAGCCAACCA 3.18
CCGACTGGGGCAGAAAGGTTACCTTACCATCCGG -0.873
ACGATTAGTTGACTTAGGGCAACCGATACGACGC 0.251
CGTCAAAATTCAACTAAGGTAACGTAAAGCACGC 1.69

Any idea what PBM binding z-score came out for ACTATTCGTTGACTTAGGGCAACCGATACGACGC on RARa homodimer (NR concentration 270 nM)?
0.76

Look up PBM binding z-score with RARa homodimer (NR concentration 270 nM) for this sequence: CCTAGCAGGCCATTCTGGGTCACTCAAGGCTTGA
-0.611

# query: PBM binding z-score | item TCTATTAGTTGATTAGGGCAACCTAAACAGCGGA | system: RARa homodimer (NR concentration 270 nM)
1.09

What measured PBM binding z-score is associated with CCTAGTTGGTCAAGGTCACACTCGCTATAGGTAC on RARa homodimer (NR concentration 270 nM)?
2.57

Please state recorded PBM binding z-score (tested on RARa homodimer (NR concentration 270 nM)) of AGGATGAGGTTAAGATCAGGGAAACAGAATACAT
1.63

Item: TCTGCTAGGTCAGCGATGGTCAGCTAATCTGCTA Test system: RARa homodimer (NR concentration 270 nM) Read-out: PBM binding z-score Value: ?
-1.26

Requested read-out PBM binding z-score, target or system RARa homodimer (NR concentration 270 nM), entry CCTACTTGGCCAAGGTCATTGATCAGTCAAAGCA
1.49

Return PBM binding z-score measured with RARa homodimer (NR concentration 270 nM) given this sequence: CCTATTAGTTGACCACAAGGGCAACCGAAGCTCG
1.46

Item CAAACTTGGTCAAGGTCAAAGTCGGTTTGTGCCA with RARa homodimer (NR concentration 270 nM) - PBM binding z-score?
0.201

Request body: readout PBM binding z-score, system RARa homodimer (NR concentration 270 nM), query CCTCGGAGGAGAACAGGAGGTCAGAGCTGCCAGA . Return the value.
0.495

// fetch RARa homodimer (NR concentration 270 nM) PBM binding z-score for ACTATTAGTTGAGCCGAGGGCAACCGATAGGTTG
0.387

For RARa homodimer (NR concentration 270 nM), provide PBM binding z-score of TCTCGGATGACACGAAGGTCAGAGCTTTCCAGAG please.
-0.214

Provide value of PBM binding z-score for this record tested with RARa homodimer (NR concentration 270 nM): TAGCCTAGGTCAGATCGGGCCAGGATACGCTATA
-1.26

# get_value(readout= PBM binding z-score, system= RARa homodimer (NR concentration 270 nM)) for AGAATGAAGTTACCAAAGATCAGGGAAACGCTTG
-0.214

Hello, I am looking for reported PBM binding z-score with RARa homodimer (NR concentration 270 nM) for ATCGAAAGGTCGTGAGGGGAGTATACAGAAAGGC . Could you help?
0.753

Request - read-out PBM binding z-score | tested on RARa homodimer (NR concentration 270 nM) | sequence TCTAGTTGGTCAATGGTCACACACTCGAAATGCG
0.846
